Test system: colorectal tissue transcripts
ASSAY: SAGE of normal, adenoma and cancer colorectal tissue (transcript tag counts)
Design: species or system human
CONDITIONS_USED: SAGE library AD1
Measured AD1 (SAGE tag count) accompanies every entry in the list below.

These solved cases illustrate the format of a correct answer.
GTAGCAGGTG (chemistry not fully specified) :: 11
GGAACAGGGG (chemistry not fully specified) :: 1
GGAGGCGCTC (chemistry not fully specified) :: 1

For record ACAATTGGTC (chemistry not fully specified) the listed AD1 (SAGE tag count) is 0

For record GACGCGGCGC (chemistry not fully specified) the listed AD1 (SAGE tag count) is 10

For record GCACAGGTCA (chemistry not fully specified) the listed AD1 (SAGE tag count) is 1

For record CCCCCTGCAT (chemistry not fully specified) the listed AD1 (SAGE tag count) is 0

For record ATGATGGCAC (chemistry not fully specified; the letters are possibly those of the target site) the listed AD1 (SAGE tag count) is 1

For record ATGTGCGTGG (chemistry not fully specified) the listed AD1 (SAGE tag count) is 11

For record GCTCTTCCCC (chemistry not fully specified; the letters are possibly those of the target site) the listed AD1 (SAGE tag count) is 1

For record CTTATGGTCC (chemistry not fully specified) the listed AD1 (SAGE tag count) is 0

For record AATAGTTTCC (chemistry not fully specified) the listed AD1 (SAGE tag count) is 2

For record AGGTGACTGG (chemistry not fully specified) the listed AD1 (SAGE tag count) is 0

For record CGGACTCACT (chemistry not fully specified) the listed AD1 (SAGE tag count) is 5

For record ATCGTGGCGG (chemistry not fully specified) the listed AD1 (SAGE tag count) is 19

For record GCCACGTGGA (chemistry not fully specified) the listed AD1 (SAGE tag count) is 5

For record GCAGCTCCTG (chemistry not fully specified) the listed AD1 (SAGE tag count) is 3

For record CTTACAAGCA (chemistry not fully specified) the listed AD1 (SAGE tag count) is 2

For record CCTGCTTGTC (chemistry not fully specified) the listed AD1 (SAGE tag count) is 0

For record CTGTACTTGT (chemistry not fully specified) the listed AD1 (SAGE tag count) is 1

For record GACCAGCCCA (chemistry not fully specified) the listed AD1 (SAGE tag count) is 3

###

System: colorectal tissue transcripts
ASSAY: SAGE of normal, adenoma and cancer colorectal tissue (transcript tag counts)
Design: species or system human
CONDITIONS_USED: SAGE library NC2
Under this convention, t denotes NC2 (SAGE tag count) strictly below 20 and f denotes NC2 (SAGE tag count) at or above 20.

CTGGATCTGG (chemistry not fully specified; the letters are possibly those of the target site) :: f

stdin: Please check: NC2 (SAGE tag count) for ACCTGCATCC (chemistry not fully specified) , strictly under 20 or not?
stdout: t

stdin: Please check: NC2 (SAGE tag count) for GGGGCAGGGC (chemistry not fully specified) , strictly under 20 or not?
stdout: f

stdin: Please check: NC2 (SAGE tag count) for ATGGCACGGA (chemistry not fully specified; the letters are possibly those of the target site) , strictly under 20 or not?
stdout: f

###

Measured AD1 (SAGE tag count) accompanies every entry in the list below.
Tested on: colorectal tissue transcripts
ASSAY: SAGE of normal, adenoma and cancer colorectal tissue (transcript tag counts)
Set-up: species or system human
CONDITIONS_USED: SAGE library AD1
Response field accepts a number only; no unit should be typed.

GCCCAGGGCC (chemistry not fully specified; the letters are possibly those of the target site) :: 2
GCCGTGGAGA (chemistry not fully specified) :: 4

For record GGCTCGGGAT (chemistry not fully specified) the listed AD1 (SAGE tag count) is 2

For record GCCCACACAG (chemistry not fully specified) the listed AD1 (SAGE tag count) is 1

For record AGGCCAAGGG (chemistry not fully specified) the listed AD1 (SAGE tag count) is 3
